Hey, just so you know, these numbers are from the RNAGym collection of RNA variant scans (doi:10.1101/gr.219683.116).

B1: mRNA-splicing (parent)
chain: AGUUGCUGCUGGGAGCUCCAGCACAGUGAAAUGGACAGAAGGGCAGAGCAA

- Variants of: B1
- PROCEDURE SUMMARY: exon inclusion enrichment index; higher = more inclusion; WT1 exon 5 minigene, HEK293
MEASUREMENT TYPE: exon inclusion enrichment index
Just the number.

Per the records, this variant ( G5U G8U C9U A39C ) has exon inclusion enrichment index equal to 0.0249

Per the records, this variant ( C6A U7C C9A U10C A14G ) has exon inclusion enrichment index equal to 4.78

Per the records, this variant ( U4G C6A U7A C9A U10A ) has exon inclusion enrichment index equal to 0.488

Per the records, this variant ( G11C G12U ) has exon inclusion enrichment index equal to 0.467

Per the records, this variant ( C6A U7A C9A U10A G33A G34U ) has exon inclusion enrichment index equal to 0.0565

Per the records, this variant ( G5A C6G U7G C9A C16G ) has exon inclusion enrichment index equal to 0.00149

Per the records, this variant ( G5C C6A U7C G8A U10A A29G ) has exon inclusion enrichment index equal to 0.202

Per the records, this variant ( C6A U7C G8C C9A U10A ) has exon inclusion enrichment index equal to 0.587

Per the records, this variant ( C6A U7C C9A U10C C24U A25U ) has exon inclusion enrichment index equal to 2.88

Per the records, this variant ( G5C C6U G8C C9U U10C G11U G12U ) has exon inclusion enrichment index equal to 0.188

Per the records, this variant ( G5C C6A U7C G8A U10A C19G A20G ) has exon inclusion enrichment index equal to 0.0527

Per the records, this variant ( A30U ) has exon inclusion enrichment index equal to 0.0645

Per the records, this variant ( G5C C6U G8C C9U U10C G21U C22U ) has exon inclusion enrichment index equal to 0.512

Per the records, this variant ( C6A U7C C9A U10C A23G C24U ) has exon inclusion enrichment index equal to 1.95

Per the records, this variant ( G43U C44U ) has exon inclusion enrichment index equal to 0.0355

Per the records, this variant ( G5C C6A U7C G8A U10A A35G C36G ) has exon inclusion enrichment index equal to 0.00494

Per the records, this variant ( C6A U7C C9A U10C A20U G21A ) has exon inclusion enrichment index equal to 2.77

Per the records, this variant ( G5C C6A U7C G8A U10A A14U ) has exon inclusion enrichment index equal to 0.0358

Per the records, this variant ( G5U G8U C9U G46U A47U ) has exon inclusion enrichment index equal to 0.164

Per the records, this variant ( G5C C6U U7A C9A U10A ) has exon inclusion enrichment index equal to 0.0605

Per the records, this variant ( G5A C6U U7A G8U C9A A14G ) has exon inclusion enrichment index equal to 0.0395

Per the records, this variant ( G5C C6A U7C G8A U10A C24U ) has exon inclusion enrichment index equal to 0.0213
